- assay procedure: pharmacokinetic study in rats of ig administration
- Format: in vivo
- protocol conditions: rat, plasma, po, 50 mg/kg, ig 50 mg/kg, mean of A-F, read-out: Vz/F Mean
observed property: Vd/F
Please make sure the unit comes right after the number.

Specify Vd/F for C[C@@H](C(=O)O)c1ccc2c(c1)CC(=O)c1ccccc1S2 and stop.
1 L/kg

###

- assay procedure: pharmacokinetic study in rats of ig administration
- Type: in vivo
- protocol conditions: rat, plasma, po, 50 mg/kg, ig 50 mg/kg, mean of A-F, read-out: Tmax Mean
observed property: Tmax

Specify Tmax for C[C@@H](C(=O)O)c1ccc2c(c1)CC(=O)c1ccccc1S2 and stop.
36 min

###

- assay system: Cox-1 (Ovis aries, UniProt P05979)
- Construct: purchased Cayman, USA
- Sequence (P05979 25-600): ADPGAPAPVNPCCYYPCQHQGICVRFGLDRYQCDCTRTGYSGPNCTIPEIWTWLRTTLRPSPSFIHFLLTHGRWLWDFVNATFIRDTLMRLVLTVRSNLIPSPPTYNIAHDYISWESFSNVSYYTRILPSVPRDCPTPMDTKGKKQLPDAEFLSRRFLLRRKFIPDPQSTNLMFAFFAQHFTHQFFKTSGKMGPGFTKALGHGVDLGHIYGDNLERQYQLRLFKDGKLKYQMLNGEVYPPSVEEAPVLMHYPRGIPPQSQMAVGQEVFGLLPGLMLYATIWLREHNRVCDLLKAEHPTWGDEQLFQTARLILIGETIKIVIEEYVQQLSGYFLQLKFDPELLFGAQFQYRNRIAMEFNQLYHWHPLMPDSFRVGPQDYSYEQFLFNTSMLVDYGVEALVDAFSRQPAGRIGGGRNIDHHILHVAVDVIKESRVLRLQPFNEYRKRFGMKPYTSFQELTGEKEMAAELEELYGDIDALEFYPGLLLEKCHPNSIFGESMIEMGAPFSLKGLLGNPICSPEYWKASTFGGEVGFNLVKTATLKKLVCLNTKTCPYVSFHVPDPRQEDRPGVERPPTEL
- assay procedure: inhibiting activity to COX-1 (TMPD colorimetric, 590 nm)
- Assay type: biochemical
- protocol conditions: tested at 300, 100, 30, 10 μmol/L (positive control 100, 30, 10, 3)
This section presents compounds with their documented IC50 values.
Just the number please, in µM, no unit attached.

- compound: "C[C@H](C(=O)O)c1ccc2c(c1)CC(=O)c1ccccc1S2 [S]"
  IC50 / µM: 186

Let us move to another entry and its IC50.
Specify IC50 for CC(C(=O)O)c1ccc2c(c1)CC(=O)c1ccccc1S2 (racemic) [RS, reference compound] and stop.
153

###

- assay procedure: in vivo
- protocol conditions: ICR, mouse, in vivo, po
observed property: LD50 at 14 days (mg/kg)
Just the number please, in mg/kg, no unit attached.

- molecule: "C[C@H](C(=O)O)c1ccc2c(c1)CC(=O)c1ccccc1S2 [S]"
  unit name: "mg/kg"
  LD50 at 14 days: 268

Let us move to another entry and its LD50 at 14 days.
Specify LD50 at 14 days for C[C@@H](C(=O)O)c1ccc2c(c1)CC(=O)c1ccccc1S2 [R] and stop.
3990

###

- assay procedure: pharmacokinetic study in rats of ig administration
- Assay type: in vivo
- protocol conditions: rat, plasma, po, 50 mg/kg, ig 50 mg/kg, mean of A-F, read-out: Cmax Mean
observed property: Cmax

Specify Cmax for C[C@@H](C(=O)O)c1ccc2c(c1)CC(=O)c1ccccc1S2 and stop.
161 µg/mL

###

- assay procedure: in vivo
- protocol conditions: mouse, in vivo, po
observed property: LD50 at 14 days

Specify LD50 at 14 days for CC(C(=O)O)c1ccc2c(c1)CC(=O)c1ccccc1S2 (racemic) [RS, reference compound] and stop.
327 mg/kg

###

- assay procedure: pharmacokinetic study in rats of ig administration
- Assay type: in vivo
- protocol conditions: rat, plasma, po, 50 mg/kg, ig 50 mg/kg, mean of A-F, read-out: AUC(0-48) Mean
observed property: AUC(0-t) (µg·h/mL)
Just the number please, in µg·h/mL, no unit attached.

Specify AUC(0-t) for C[C@@H](C(=O)O)c1ccc2c(c1)CC(=O)c1ccccc1S2 [R] and stop.
628
